Data provenance: paper PMC11032351

system: GRN mRNA; assay: qPCR of GRN mRNA in human NPCs (enhancer screen and follow-up); assay type: cell-based; details: human NPCs, 24 h, dose 1 µM, relative to DMSO
quantityMeasured: GRN Fold-change (Norm. to GAPDH) ± Std. Error
// no unit, no text: just the number

Briefly, GRN Fold-change (Norm. to GAPDH) ± Std. Error measured for CCn1cc(-c2ccnc3[nH]c(-c4cccc(CN(C)C)c4)cc23)c(-c2ccc(NC(=O)N(C)C)cc2)n1 [GSK1070916] : 1.45

Briefly, GRN Fold-change (Norm. to GAPDH) ± Std. Error measured for CN(C)Cc1c(C(=O)NCCOc2ccc(C(=O)NO)cc2)oc2ccccc12 [PCI-24781] : 3.68

Briefly, GRN Fold-change (Norm. to GAPDH) ± Std. Error measured for Cc1[nH]c2ccccc2c1CCNCc1ccc(/C=C/C(=O)NO)cc1 [Panobinostat, panobinostat] : 3.08

Briefly, GRN Fold-change (Norm. to GAPDH) ± Std. Error measured for COc1cc2nc(N3CCCN(C)CC3)nc(NC3CCN(Cc4ccccc4)CC3)c2cc1OC [BIX01294] : 0.80
